# TESTED_ON: T1, huNav1.7α + β1 (human)
# T1 construct: HEK293 cells; also called huNav1.7-beta1; huNav1.7-β1
# ASSAY_INFO: competition FACS vs EC25 of F103275B05(N93R), HEK
MEASURED_QUANTITY: pIC50
Here pIC50 is given on a logarithmic scale as minus log10 of the concentration in mol/L.

{"columns": ["BINDER", "pIC50"],
 "data": [
  ["F010302378 (bispecific antibody, also called F0103275B05(E1D, N93R)-50GS-F0103495F09-FLAG3-HIS6) DVQLVESGGGLVQPGGSLRLSCAASGSIFNINSMAWYRRAPGKQRELVASSTNGGSTNYADSVKGRFTISRDNAKRVYLQMNSLTPEDTAVYYCRALLQPSIYDISRTYWGQGTLVTVSSGGGGSGGGGSGGGGSGGGGSGGGGSGGGGSGGGGSGGGGSGGGGSGGGGSEVQLVESGGGLVQAGSSLSLSCAASGRALSTYAMGWFRQAPGKEREFVARISRSGITTYYTDSVKGRFTISRDRAKDTVYLQMNSLKPEDTAIYLCAADASTNPAGYYLRNRYDYWGQGTLVTVSSGAADYKDHDGDYKDHDIDYKDDDDKGAAHHHHHH", 8.28]
]}

Field: next binder
Q: May I ask what pIC50 has been recorded for F010302377 (bispecific antibody, also called F0103275B05(E1D, N93R)-50GS-F0103492E09-FLAG3-HIS6) DVQLVESGGGLVQPGGSLRLSCAASGSIFNINSMAWYRRAPGKQRELVASSTNGGSTNYADSVKGRFTISRDNAKRVYLQMNSLTPEDTAVYYCRALLQPSIYDISRTYWGQGTLVTVSSGGGGSGGGGSGGGGSGGGGSGGGGSGGGGSGGGGSGGGGSGGGGSGGGGSEVQLVESGGGLVQAGGSLRLSCAASKSILSFAYMRWYRQAPGKQREFVASIAIGGATSYTDSVKGRFTISRDNAKNTVYLQMNSLKPEDTAVYYCSAPAGQYRGQGTLVTVSSGAADYKDHDGDYKDHDIDYKDDDDKGAAHHHHHH ?
Result: 6.85

The origin of these recorded values is patent US20240002497A1.
